Collected cytotoxicity at 50 ug/ml values appear next to each entry.
test: Cytotoxicity against human THP1 cells at 50 ug/ml by MTT assay; assay type: cell-based; details: THP-1 cells, read-out: INH

Consider the following illustrative entries.
compoundSmiles	cytotoxicity at 50 ug/ml
C(=N\Nc1nc(-c2ccccc2)cs1)/c1ccc(-n2cncn2)cc1	28.4%
Fc1ccc(-c2csc(N/N=C/c3ccc(-n4ccnc4)cc3)n2)cc1	18.7%

Kindly review the next compound as well.
Return cytotoxicity at 50 ug/ml (reported value) for this compound: Clc1ccc(-c2csc(N/N=C/c3ccc(-n4ccnc4)cc3)n2)cc1 32.1%

====

assay: Cytotoxicity against human THP1 cells at 50 ug/ml by MTT assay; type: cell-based; details: THP-1 cells, read-out: INH
The threshold is inclusive: cytotoxicity at 50 ug/ml of exactly 20% counts as 1.0; values below receive 0.0.

The following compounds have reported results that may help.
compoundSmiles	group
Clc1ccc(-c2csc(N/N=C/c3ccc(-n4ccnc4)cc3)n2)c(Cl)c1	1.0
C(=N\Nc1nc(-c2ccccc2)cs1)/c1ccc(-n2ccnc2)cc1	1.0
Brc1ccc(-c2csc(N/N=C/c3ccc(-n4ccnc4)cc3)n2)cc1	1.0
Cc1ccc(-c2csc(N/N=C/c3ccc(-n4cncn4)cc3)n2)cc1	0.0
COc1ccc(-c2csc(N/N=C/c3ccc(-n4cncn4)cc3)n2)cc1	1.0
O=[N+]([O-])c1ccc(-c2csc(N/N=C/c3ccc(-n4cncn4)cc3)n2)cc1	0.0
O=[N+]([O-])c1ccc(-c2csc(N/N=C/c3ccc(-n4ccnc4)cc3)n2)cc1	0.0
Clc1ccc(-c2csc(N/N=C/c3ccc(-n4cncn4)cc3)n2)cc1	1.0

Reported cytotoxicity at 50 ug/ml at or above 20%? Fc1ccc(-c2csc(N/N=C/c3ccc(-n4cncn4)cc3)n2)cc1 1.0

Would you say Clc1ccc(-c2csc(N/N=C/c3ccc(-n4cncn4)cc3)n2)c(Cl)c1 shows cytotoxicity at 50 ug/ml at minimum 20%? 0.0
